Reference source: PubChem BioAssay AID623975

# Target: G protein-activated inward rectifier potassium channel 4 (Homo sapiens) + G protein-activated inward rectifier potassium channel 1 (Homo sapiens) (UniProt P48544+P48549)
# Sequence (P48544 whole entry, looked up): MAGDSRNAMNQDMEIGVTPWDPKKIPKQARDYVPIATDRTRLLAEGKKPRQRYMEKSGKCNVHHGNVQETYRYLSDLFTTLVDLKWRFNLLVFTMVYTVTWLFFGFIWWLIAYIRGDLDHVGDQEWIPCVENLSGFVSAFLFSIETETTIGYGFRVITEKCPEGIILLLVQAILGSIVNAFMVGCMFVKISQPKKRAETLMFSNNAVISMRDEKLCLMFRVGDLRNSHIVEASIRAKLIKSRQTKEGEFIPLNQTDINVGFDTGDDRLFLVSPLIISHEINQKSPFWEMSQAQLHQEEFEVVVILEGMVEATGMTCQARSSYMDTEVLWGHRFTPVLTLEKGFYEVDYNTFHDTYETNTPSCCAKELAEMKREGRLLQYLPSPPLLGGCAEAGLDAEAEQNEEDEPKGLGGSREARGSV
# Sequence (P48549 whole entry, looked up): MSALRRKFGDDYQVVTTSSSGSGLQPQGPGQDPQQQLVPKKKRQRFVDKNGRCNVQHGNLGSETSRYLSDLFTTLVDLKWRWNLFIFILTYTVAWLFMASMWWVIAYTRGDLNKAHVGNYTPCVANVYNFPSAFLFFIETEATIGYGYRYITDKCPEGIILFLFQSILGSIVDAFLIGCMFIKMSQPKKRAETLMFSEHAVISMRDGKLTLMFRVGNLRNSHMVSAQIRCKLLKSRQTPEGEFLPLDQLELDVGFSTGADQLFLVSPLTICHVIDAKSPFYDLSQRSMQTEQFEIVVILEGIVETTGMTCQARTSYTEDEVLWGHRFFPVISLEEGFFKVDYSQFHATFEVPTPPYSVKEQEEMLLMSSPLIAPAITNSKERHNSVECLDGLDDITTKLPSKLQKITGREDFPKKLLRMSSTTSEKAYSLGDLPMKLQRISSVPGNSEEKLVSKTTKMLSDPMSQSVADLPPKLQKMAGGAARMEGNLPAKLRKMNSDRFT
# Test method notes: GIRK1/4 channel activators, Tl+ flux, dose response, cell-based, HEK-293 hGIRK1/4, thallium flux, FluoZin-2, concentration-response (AID 623975)
# Condition parameters: HEK-293 hGIRK1/4, thallium flux FluoZin-2 fluorescence
Observation type: pEC50
Just so you know, pEC50 here is -log10 of the concentration in molar units; reply with that number alone.

Please supply the value of reported pEC50 for the item Cc1cc(NC(=O)Nc2ccc(F)c(F)c2)n(-c2ccccc2)n1 5.95
